Test system: isolated mouse liver mitochondria
Assay: Loss of mitochondrial transmembrane potential
Format: biochemical
Conditions: 20% of maximal loss of ΔΨm (50µM mClCCP = 100%), 30-min incubation
So basically, if ΔΨm loss EC20 comes in under 200 µM it's 1.0, and if it's 200 µM or more it's 0.0.

Prompt: Answer whether the molecule C=CC1=C(C(=O)O)N2C(=O)[C@@H](NC(=O)/C(=N\OCC(=O)O)c3csc(N)n3)[C@H]2SC1 [Cefixime] has ΔΨm loss EC20 strictly less than 200 µM
Response: 0.0

Prompt: Answer whether the molecule O=C(O)c1cn(C2CC2)c2cc(N3CCNCC3)c(F)cc2c1=O [Ciprofloxacin] has ΔΨm loss EC20 strictly less than 200 µM
Response: 0.0

Prompt: Answer whether the molecule CN(C)CCCN1c2ccccc2CCc2ccccc21 [Imipramine] has ΔΨm loss EC20 strictly less than 200 µM
Response: 1.0

Prompt: Answer whether the molecule Cc1nc(Nc2ncc(C(=O)Nc3c(C)cccc3Cl)s2)cc(N2CCN(CCO)CC2)n1 [Dasatinib] has ΔΨm loss EC20 strictly less than 200 µM
Response: 1.0

Prompt: Answer whether the molecule CC(=O)Oc1ccccc1C(=O)O [Acetylsalicylic acid] has ΔΨm loss EC20 strictly less than 200 µM
Response: 0.0

Prompt: Answer whether the molecule CC[C@H]1OC(=O)[C@H](C)[C@@H](O[C@H]2C[C@@](C)(OC)[C@@H](O)[C@H](C)O2)[C@H](C)[C@@H](O[C@@H]2O[C@H](C)C[C@H](N(C)C)[C@H]2O)[C@](C)(O)C[C@@H](C)C(=O)[C@H](C)[C@@H](O)[C@]1(C)O [Erythromycin] has ΔΨm loss EC20 strictly less than 200 µM
Response: 0.0

Prompt: Answer whether the molecule CCOC(=O)CN[C@@H](C(=O)N1CC[C@H]1C(=O)NCc1ccc(/C(N)=N\O)cc1)C1CCCCC1 [Ximelagatran] has ΔΨm loss EC20 strictly less than 200 µM
Response: 0.0

Prompt: Answer whether the molecule [Cl][Mn][Cl] [Manganese chloride] has ΔΨm loss EC20 strictly less than 200 µM
Response: 0.0

Prompt: Answer whether the molecule CCCC(CCC)C(=O)O [Valproic acid] has ΔΨm loss EC20 strictly less than 200 µM
Response: 0.0

Prompt: Answer whether the molecule O=c1c(-c2ccc(O)cc2)coc2cc(O)cc(O)c12 [Genistein] has ΔΨm loss EC20 strictly less than 200 µM
Response: 1.0

Prompt: Answer whether the molecule CCOC(=O)[N-]c1cn(N2CCOCC2)n[o+]1 [Molsidomine] has ΔΨm loss EC20 strictly less than 200 µM
Response: 0.0

Prompt: Answer whether the molecule C[C@@H]1O[C@@H](OC[C@H]2O[C@@H](Oc3c(-c4ccc(OCCO)c(OCCO)c4)oc4cc(OCCO)cc(O)c4c3=O)[C@H](O)[C@@H](O)[C@@H]2O)[C@H](O)[C@H](O)[C@H]1O [Troxerutin] has ΔΨm loss EC20 strictly less than 200 µM
Response: 0.0

Prompt: Answer whether the molecule CO[C@]12C[C@@H](COC(=O)c3cncc(Br)c3)CN(C)[C@@H]1Cc1cn(C)c3cccc2c13 [Nicergoline] has ΔΨm loss EC20 strictly less than 200 µM
Response: 1.0
